biological target: Luciferin 4-monooxygenase (Photinus pyralis); test: qHTS assay to identify small molecule inhibitors of firefly luciferase (AID 1224835); further: nearly all actives have a fitted effect of over 25% in size; further: potency means the concentration at half of the fitted maximal effect; details: purified P. pyralis luciferase, luminescence inhibition; series mostly up to 115 µM
Records with an inconclusive call do not appear. Active and inactive are the calls of the source. The call rests on the fitted dose curve; in most records, active means well fitted inhibition curve with a large enough effect in the repeat runs; inconclusive means weak or mixed curves; inactive means flat fitted curve, though single readings scatter.

>  <molecule>
Cc1ccc(S(=O)(=O)NC2CCCCC2)cc1

>  <assay-system>
Luciferin 4-monooxygenase (Photinus pyralis)

>  <Potency>
inactive

$$$$
>  <molecule>
C=CC(C)(C)CC(=O)OC

>  <assay-system>
Luciferin 4-monooxygenase (Photinus pyralis)

>  <Potency>
inactive

$$$$
>  <molecule>
CC(=O)Nc1ccccc1C

>  <assay-system>
Luciferin 4-monooxygenase (Photinus pyralis)

>  <Potency>
inactive

$$$$
>  <molecule>
O=C(CCCN1CCN(c2ccc(F)cc2)CC1)NC1c2ccccc2CSc2ccccc21 (stereo unspecified)

>  <assay-system>
Luciferin 4-monooxygenase (Photinus pyralis)

>  <Potency>
inactive

$$$$
>  <molecule>
Cc1cc(C(=C2C=CC(=Nc3ccc(S(=O)(=O)O)cc3S(=O)(=O)O)C=C2)c2ccc(Nc3ccc(S(=O)(=O)O)cc3)cc2)ccc1N

>  <assay-system>
Luciferin 4-monooxygenase (Photinus pyralis)

>  <Potency>
23.2 µM (active)

$$$$
>  <molecule>
CC1=CC(=O)CC(C)(C)C1(O)/C=C/C(C)=C\C(=O)O (stereo unspecified)

>  <assay-system>
Luciferin 4-monooxygenase (Photinus pyralis)

>  <Potency>
inactive

$$$$
>  <molecule>
C=CCNc1nc(NCC=C)nc(N2CCN(C(c3ccc(F)cc3)c3ccc(F)cc3)CC2)n1

>  <assay-system>
Luciferin 4-monooxygenase (Photinus pyralis)

>  <Potency>
inactive

$$$$
>  <molecule>
CCCCCCCC/C=C\CCCCCCCC(=O)OC

>  <assay-system>
Luciferin 4-monooxygenase (Photinus pyralis)

>  <Potency>
inactive

$$$$
>  <molecule>
Oc1ccc(Nc2ccccc2)cc1

>  <assay-system>
Luciferin 4-monooxygenase (Photinus pyralis)

>  <Potency>
inactive

$$$$
>  <molecule>
O=C(OCCOCCO)c1ccccc1Nc1cccc(C(F)(F)F)c1

>  <assay-system>
Luciferin 4-monooxygenase (Photinus pyralis)

>  <Potency>
inactive

$$$$
>  <molecule>
Cc1c(C(=O)NN2CCCCC2)nn(-c2ccc(Cl)cc2Cl)c1-c1ccc(Cl)cc1

>  <assay-system>
Luciferin 4-monooxygenase (Photinus pyralis)

>  <Potency>
inactive

$$$$

* * *

assay: qHTS assay to identify small molecule antagonists of the constitutive androstane receptor (CAR) signaling pathway - cell viability counter screen (AID 1224837); settings: HepG2-CYP2B6-hCAR viability, CellTiter-Fluor, 23 h, co-treated with 50 nM CITCO; series mostly up to 92.4 µM; further: nearly all actives have a fitted effect of over 45% in size
Records with an inconclusive call do not appear. The source made the active and inactive calls. Calls come from the whole dose curve; as a rule, active = well fitted cell-killing curve with a large enough effect in the repeat runs; inconclusive = weak or mixed curves, or effect the other way; inactive = flat fitted curve, though single readings scatter.
reported-endpoint: outcome

>  <structure-string>
Cc1cnc(C)c(C)n1

>  <observed-measurement>
inactive

$$$$
>  <structure-string>
Oc1ccc(Nc2ccccc2)cc1

>  <observed-measurement>
inactive

$$$$
>  <structure-string>
CC(=O)OCC(=O)[C@H]1CC[C@H]2[C@@H]3CCC4=CC(=O)CC[C@]4(C)[C@H]3CC[C@]12C

>  <observed-measurement>
inactive

$$$$
>  <structure-string>
C[Si]1(C)O[Si](C)(C)O[Si](C)(C)O1

>  <observed-measurement>
inactive

$$$$
>  <structure-string>
CC(=O)OCC(=O)[C@@]12OC(C)(C)O[C@@H]1C[C@H]1[C@@H]3C[C@H](F)C4=CC(=O)C=C[C@]4(C)[C@@]3(F)[C@@H](O)C[C@@]12C

>  <observed-measurement>
inactive

$$$$
>  <structure-string>
Brc1cc(-c2ccc(Br)c(Br)c2Br)cc(Br)c1Br

>  <observed-measurement>
inactive

$$$$
>  <structure-string>
CCCCCCCCCCOS(=O)(=O)O

>  <observed-measurement>
inactive

$$$$
